system_tested: TLR7 (Homo sapiens)
Construct: human HEK-Blue cells co-expressing a TLR7 or TLR8 gene
Sequence (Q9NYK1 27-1049): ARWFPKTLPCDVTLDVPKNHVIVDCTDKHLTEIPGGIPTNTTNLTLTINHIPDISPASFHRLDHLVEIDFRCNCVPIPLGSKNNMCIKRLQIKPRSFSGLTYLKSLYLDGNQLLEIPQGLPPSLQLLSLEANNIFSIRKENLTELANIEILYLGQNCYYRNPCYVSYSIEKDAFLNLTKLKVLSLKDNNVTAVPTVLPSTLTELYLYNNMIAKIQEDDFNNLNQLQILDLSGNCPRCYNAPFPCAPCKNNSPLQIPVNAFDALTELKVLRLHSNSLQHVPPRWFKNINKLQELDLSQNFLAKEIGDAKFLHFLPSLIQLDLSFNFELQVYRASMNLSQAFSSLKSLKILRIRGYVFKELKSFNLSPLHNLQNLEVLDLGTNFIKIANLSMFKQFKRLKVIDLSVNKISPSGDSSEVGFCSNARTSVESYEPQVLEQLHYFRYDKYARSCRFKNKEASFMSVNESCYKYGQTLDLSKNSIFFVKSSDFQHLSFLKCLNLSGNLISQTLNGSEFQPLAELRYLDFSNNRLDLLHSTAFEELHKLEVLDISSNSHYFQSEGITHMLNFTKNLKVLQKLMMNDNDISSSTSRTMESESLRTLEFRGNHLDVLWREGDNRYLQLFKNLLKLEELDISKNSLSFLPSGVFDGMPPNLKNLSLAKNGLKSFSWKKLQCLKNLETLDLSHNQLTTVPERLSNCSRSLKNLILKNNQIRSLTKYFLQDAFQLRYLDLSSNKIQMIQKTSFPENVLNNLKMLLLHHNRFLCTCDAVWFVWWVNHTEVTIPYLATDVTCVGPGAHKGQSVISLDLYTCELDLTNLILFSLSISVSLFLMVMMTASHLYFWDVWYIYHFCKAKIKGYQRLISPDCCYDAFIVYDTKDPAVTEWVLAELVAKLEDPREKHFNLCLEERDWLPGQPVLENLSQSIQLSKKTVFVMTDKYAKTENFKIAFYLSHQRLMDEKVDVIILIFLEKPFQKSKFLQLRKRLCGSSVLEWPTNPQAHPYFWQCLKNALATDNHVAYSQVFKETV
method_notes: In vitro human TLR7 binding reporter assay (HEK-Blue, NF-kB/AP1-inducible SEAP)
Assay type: cell-based
recorded_conditions: activity range class, read-out: TLR7 Agonist EC50
property_label: EC50

Some solved entries appear below for comparison.
molecule	system_tested	EC50
N#CC[C@@H](O)Cn1cc2c(N)nc3cc(-c4cc[nH]n4)ccc3c2n1 [Example 381]	TLR7 (Homo sapiens)	> 100 µM
Nc1nc2cc(-c3cc[nH]n3)ccc2c2cn(CCNS(=O)(=O)c3ccccc3)nc12 [Example 114]	TLR7 (Homo sapiens)	> 100 µM
Nc1nc2cc(-c3cc[nH]n3)ccc2c2nn(CCOC(F)(F)F)cc12 [Example 352]	TLR7 (Homo sapiens)	> 100 µM
Nc1nc2cc(-c3cc[nH]n3)ccc2c2nn(CC3CCCO3)cc12 (centres unmarked) [Example 229]	TLR7 (Homo sapiens)	> 100 µM

From here, focus on the item given below.
Lookup: Return EC50 (reported value) for this molecule: CC(CCO)n1cc2c(N)nc3cc(-c4cc[nH]n4)ccc3c2n1 (single isomer, unassigned) [Example 288]
Found: > 100 µM

====

Quick reference: EC50 of the listed items.
System: THP-1 cells
method_notes: Measurement of IL-1β production, hTRF protocol (second alternative procedure), THP-1 cells
Assay type: cell-based, human
recorded_conditions: Homo sapiens, THP-1, IL-1β production, human; read-out: NLRP3 hILIB EC50
Record the value in nM, omitting the unit from your answer.

compound	reading_unit	EC50
CC(C)(F)C(=O)N1CCOCC1Cn1cc2c(N)nc3cc(-c4ccn[nH]4)ccc3c2n1 (centres unmarked)	nM	990
Nc1nc2cc(-c3cc[nH]n3)ccc2c2nn(C3CCOC3)cc12 (racemic)	nM	90
Nc1nc2cc(-n3cccn3)ccc2c2cn(CCNC(=O)c3ccccn3)nc12	nM	300
CC(C)(C)OC(=O)Nc1nc(C(=O)NCCn2cc3c(n2)c(N)nc2cc(-c4cc[nH]n4)ccc23)cs1	nM	2070
Nc1nc2cc(-c3cc[nH]n3)ccc2c2cn(CCNC(=O)c3ncccn3)nc12	nM	1830
Nc1nc2cc(-c3cc[nH]n3)ccc2c2nn(C3CCCC3O)cc12 (single isomer, unassigned)	nM	490
Nc1nc2cc(-c3cc[nH]n3)ccc2c2cn(CCNC(=O)c3ccc(F)cc3)nc12	nM	670

From here, focus on the item given below.
Lookup: Return EC50 (reported value) for this compound: COC1CCC(n2cc3c(N)nc4cc(-c5cc[nH]n5)ccc4c3n2)C1 (centres unmarked)
Found: 580

====

system_tested: TLR8 (Homo sapiens)
Construct: human HEK-Blue cells co-expressing a TLR7 or TLR8 gene
Sequence (Q9NR97 27-1041): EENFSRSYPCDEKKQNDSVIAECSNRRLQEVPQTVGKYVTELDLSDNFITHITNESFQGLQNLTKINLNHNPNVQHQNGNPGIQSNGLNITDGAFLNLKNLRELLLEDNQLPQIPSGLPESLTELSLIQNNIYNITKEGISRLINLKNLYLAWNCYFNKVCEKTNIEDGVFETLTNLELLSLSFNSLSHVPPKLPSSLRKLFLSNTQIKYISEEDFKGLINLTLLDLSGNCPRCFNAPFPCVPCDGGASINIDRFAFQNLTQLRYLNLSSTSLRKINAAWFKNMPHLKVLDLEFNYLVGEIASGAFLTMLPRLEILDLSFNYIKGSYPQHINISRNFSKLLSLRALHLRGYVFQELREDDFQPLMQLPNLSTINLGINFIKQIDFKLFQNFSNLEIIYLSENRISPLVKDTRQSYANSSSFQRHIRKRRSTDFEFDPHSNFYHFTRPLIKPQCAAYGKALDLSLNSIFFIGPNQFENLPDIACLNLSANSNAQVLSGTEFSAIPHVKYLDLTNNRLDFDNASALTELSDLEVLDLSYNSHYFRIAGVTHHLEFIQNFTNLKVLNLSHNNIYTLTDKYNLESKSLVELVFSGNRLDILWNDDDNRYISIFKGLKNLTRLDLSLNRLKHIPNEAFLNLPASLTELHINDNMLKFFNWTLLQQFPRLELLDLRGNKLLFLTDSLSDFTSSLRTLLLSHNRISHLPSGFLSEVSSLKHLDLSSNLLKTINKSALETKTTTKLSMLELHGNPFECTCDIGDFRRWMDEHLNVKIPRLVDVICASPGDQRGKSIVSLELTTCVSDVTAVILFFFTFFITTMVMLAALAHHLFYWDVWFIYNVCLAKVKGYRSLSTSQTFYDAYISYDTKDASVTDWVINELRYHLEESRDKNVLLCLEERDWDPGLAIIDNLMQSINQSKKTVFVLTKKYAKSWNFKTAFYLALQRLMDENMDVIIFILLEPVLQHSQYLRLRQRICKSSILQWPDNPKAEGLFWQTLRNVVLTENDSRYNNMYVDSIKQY
method_notes: In vitro human TLR8 binding reporter assay (HEK-Blue, NF-kB/AP1-inducible SEAP)
Type: cell-based
recorded_conditions: activity range class, read-out: TLR8 Agonist EC50
Quick reference: EC50 of the listed items.

Some solved entries appear below for comparison.
molecule	system_tested	EC50
CC(=O)NCCn1cc2c(n1)c(N)nc1cc(-c3cccs3)ccc12 [Example 130]	TLR8 (Homo sapiens)	> 100 µM
Nc1nc2cc(-c3cc[nH]n3)ccc2c2cn(Cc3cscn3)nc12 [Example 168]	TLR8 (Homo sapiens)	20 to 100 µM

Lookup: Return EC50 (reported value) for this molecule: Nc1nc2cc(-c3cc[nH]n3)ccc2c2nn(C3CCC(O)C3)cc12 (centres unmarked) [Example 339]
Found: > 100 µM

Lookup: Return EC50 (reported value) for this molecule: CC(=O)N(C)CCn1cc2c(n1)c(N)nc1cc(-c3cc[nH]n3)ccc12 [Example 119]
Found: > 100 µM

Lookup: Return EC50 (reported value) for this molecule: Cc1cnc(C(=O)NCCn2cc3c(n2)c(N)nc2cc(-c4cc[nH]n4)ccc23)cn1 [Example 52]
Found: > 100 µM
